meta.source: paper PMC8345035

# Method: In vivo biodistribution of [^203Pb]VMT01 in B16-F10 melanoma xenograft model
# Set-up: species or system athymic nude mice
# Test Parameters: both sexes, athymic nude, mouse, spleen, intravenous, 74 KBq, total radioactivity, 24 h post-injection, tail vein, read-out: Biodistribution, Spleen, Average
Where a SMILES comes first, the peptide text is derived from it. Bridges are numbered along the chain shown (N, C = ends). Triazole bridges read from a SMILES are 1,4-linked. Side-chain parts run from the residue outwards. [ ]: non-standard residue; d: D form. The star is where a group is joined. X1 = NC(=O)CN1CCN(CC(=O)O)CCN(CC(=O)*)CCN(CC(=O)O)CC1; Lys(N3) = [N-]=[N+]=NCCCC[C@H](N)C(=O)O; Nle = CCCC[C@H](N)C(=O)O; Pra = C#CC[C@H](N)C(=O)O; AEEA = NCCOCCOCC(=O)O
Measurement Type: tissue uptake at 24 h (%ID/g)
The answer is to be given in %ID/g; state only the numeric part.

Ask: # return recorded tissue uptake at 24 h for input CCCC[C@H](NC(C)=O)C(=O)N[C@H]1Cc2cn(nn2)CCCC[C@@H](C(=O)N[C@@H](CCCCNC(=O)COCCOCCNC(=O)CN2CCN(CC(=O)O)CCN(CC(N)=O)CCN(CC(=O)O)CC2)C(N)=O)NC(=O)[C@H](Cc2c[nH]c3ccccc23)NC(=O)[C@H](CCCNC(=N)N)NC(=O)[C@@H](Cc2ccccc2)NC(=O)[C@H](Cc2c[nH]cn2)NC1=O [[^203Pb]VMT01, metal not drawn] (Ac-[Nle][Pra]H[dF]RW[Lys(N3)]K([AEEA-X1])-NH2; triazole 2-7)
Reply: 0.09

----------
# Method: In vivo biodistribution of [^203Pb]VMT01 in B16-F10 melanoma xenograft model
# Set-up: species or system athymic nude mice
# Test Parameters: both sexes, athymic nude, mouse, liver, intravenous, 74 KBq, total radioactivity, 1.5 h post-injection, tail vein, read-out: Biodistribution, Liver, Average
Where a SMILES comes first, the peptide text is derived from it. Bridges are numbered along the chain shown (N, C = ends). Triazole bridges read from a SMILES are 1,4-linked. Side-chain parts run from the residue outwards. [ ]: non-standard residue; d: D form. The star is where a group is joined. X1 = NC(=O)CN1CCN(CC(=O)O)CCN(CC(=O)*)CCN(CC(=O)O)CC1; Lys(N3) = [N-]=[N+]=NCCCC[C@H](N)C(=O)O; Nle = CCCC[C@H](N)C(=O)O; Pra = C#CC[C@H](N)C(=O)O; AEEA = NCCOCCOCC(=O)O
Measurement Type: tissue uptake at 1.5 h (%ID/g)
The answer is to be given in %ID/g; state only the numeric part.

Ask: # return recorded tissue uptake at 1.5 h for input CCCC[C@H](NC(C)=O)C(=O)N[C@H]1Cc2cn(nn2)CCCC[C@@H](C(=O)N[C@@H](CCCCNC(=O)COCCOCCNC(=O)CN2CCN(CC(=O)O)CCN(CC(N)=O)CCN(CC(=O)O)CC2)C(N)=O)NC(=O)[C@H](Cc2c[nH]c3ccccc23)NC(=O)[C@H](CCCNC(=N)N)NC(=O)[C@@H](Cc2ccccc2)NC(=O)[C@H](Cc2c[nH]cn2)NC1=O [[^203Pb]VMT01, metal not drawn] (Ac-[Nle][Pra]H[dF]RW[Lys(N3)]K([AEEA-X1])-NH2; triazole 2-7)
Reply: 0.43
